ASSAYED SYSTEM: RSV A fusion glycoprotein (F), virus of the neutralisation assays of Tables 54 and 57 (RSV A)
PROTOCOL SUMMARY: cell-based or functional assay
Classify: yes when IC50, neutralization of RSVA is strictly less than 4 ng/mL; no when IC50, neutralization of RSVA is not.

Study these solved cases before continuing.
BINDER	LABEL VALUE
MPK65-v2-v1.2 (antibody, V domains shown) VH: QVPLVQSGAEVKKPGESLKISCKGSGYSFINYWIGWVRQMPGKGLEWMGVIYPFDSDTKYSPSFQGHVTISADKSSNTAYVQWSSLKASDTAMYYCARFTFGIAVVTDDVSGEGQAFEIWGQGTMVTVSS VL: QIVMMQSPATLSVSPGERATLSCRASQSVAGNLAWYQQRPGQAPRLLIYGASTRATGVPARFSGSGSETEFTLTISSLQSEDFAVYYCHQYSNLPQAFGQGTRLDIK	no
MPK190-v1.3-rIgG1m17,1-LS (antibody, V domains shown) VH: QVQLVESGGGLVKPGGSLTLSCAASGFSISGYGMNWVRQAPGRGLEWVASISASSTYIYYADSMKGRFTISRDNGKTSLYLQMKSLRAEDTAVYYCARAPIEPPYFDLWGRGTLVTVSS VL: QSVLTQPPSVSGAPGQRVTISCTGSSSNIGAGYDVHWYQHLPGKAPKVLIYGNTNRPSVVPDRFSGSNSGASASLAISGLQAEDEADYFCQSYDRRLSGPIFGGGTKLTVLG	no
MPK65-v2-v3.1 (antibody, V domains shown) VH: QVPLVQSGAEVKKPGESLKISCKGSGYSFISYWIGWVRQMPGKGLEWMGVIYPFDADTKYSPSFQGHVTISADKSSNTAYVQWSSLKASDTAMYYCARFTFGIAVVTDDVSGEGQAFEIWGQGTMVTVSS VL: EIVMMQSPATLSVSPGERATLSCRASQSVAGNLAWYQQRPGQAPRLLIYGASTRATGVPARFSGSGSETEFTLTISSLQSEDFAVYYCHQYSNWPQAFGQGTRLDIK	no

Asked: Below 4 ng/mL on IC50, neutralization of RSVA? Entry MPK176-v4.3 (antibody, V domains shown) VH: QVQLVQSGAEVKKPGASVRVSCKASGYTLTAYGISWVRQAPGQGLEWMGWISPKHGSTHYAQRFQGRVTMTTDTSTSTAYMELRSLRPDDTAVYFCAREGVDIMAVPWYFDYWGQGTLVAVSS VL: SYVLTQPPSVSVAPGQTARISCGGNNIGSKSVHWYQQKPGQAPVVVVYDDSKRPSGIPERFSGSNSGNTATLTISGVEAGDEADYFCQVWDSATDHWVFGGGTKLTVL
Given back: no

Asked: Below 4 ng/mL on IC50, neutralization of RSVA? Entry MPK201-v1.2 (antibody, V domains shown) VH: EVQLVQSGAEVKKPGESLKISCQGSGYSFINYWIGWVRQKPGKGLEWMGIIYPFDSETKYSPSFQGHVTFSADKSINTAYVQWSSLRASDTAMYYCARFTFGLAVTTADVSGEGQAFEIWGQGTMVTVSS VL: QIVMMQSPATLSVSPGERATLSCRASQSVAGNLAWYQQRPGQAPRLLVYGASTRASGVPARFSGSGSETEFTLTISSLQSEDFAVYYCHHYSDLPQAFGQGTRLDIK
Given back: yes
